All values here come from ChEMBL document CHEMBL4177764.

# Species: Homo sapiens
# EXPERIMENT: Antiproliferative activity against human CHLA20 cells after 72 hrs by CellTiter-Glo luminescent cell viability assay
# Type: functional, cell-based
Active and inactive are the calls of the source. The rule behind the calls is not given here.
Hi there, use one of these labels in your reply, thanks! active, inactive

Request: Recorded test outcome, item Cc1cc(Nc2ncc(Cl)c(Nc3ccccc3S(=O)(=O)C(C)C)n2)c(OC(C)C)cc1C1CCNCC1
Response: active

----------
# Organism: Homo sapiens
# EXPERIMENT: Antiproliferative activity against human CHLA20 cells after 72 hrs by CellTiter-Glo luminescent cell viability assay
# Assay type: functional, cell-based
Activity calls are given as the source filed them. No cut-off for these calls is given here.
Choose one outcome from this list and give only that: active, inactive

These solved cases illustrate the format of a correct answer.
- Cc1cc(Nc2ncc(Cl)c(Nc3ccccc3S(=O)(=O)C(C)C)n2)c(OC(C)C)cc1C1CCN(CCOCCOCCNC(=O)CNc2cccc3c2C(=O)N(C2CCCNC2=O)C3=O)CC1 (stereo not given): inactive
- COc1cc(N2CCC(N3CCN(C)CC3)CC2)ccc1Nc1ncc(Cl)c(Nc2ccccc2S(=O)(=O)C(C)C)n1: active

Request: Each compound tested received a call. Report the one for COc1cc(N2CCN(CCOCCOCCNC(=O)CNc3cccc4c3C(=O)N(C3CCC(=O)NC3=O)C4=O)CC2)ccc1Nc1ncc(Cl)c(Nc2ccccc2S(=O)(=O)C(C)C)n1 (stereo not given) .
Response: inactive

Request: Record request — test call for COc1cc(N2CCN(CCOCCOCCNC(=O)CNc3cccc4c3C(=O)N(C3CCCNC3=O)C4=O)CC2)ccc1Nc1ncc(Cl)c(Nc2ccccc2S(=O)(=O)C(C)C)n1 (stereo not given)
Response: inactive

Request: Given Cc1cc(Nc2ncc(Cl)c(Nc3ccccc3S(=O)(=O)C(C)C)n2)c(OC(C)C)cc1C1CCN(CCOCCOCCNC(=O)CNc2cccc3c2C(=O)N(C2CCC(=O)NC2=O)C3=O)CC1 (stereo not given) , state the outcome it received in this test.
Response: inactive
